tested_system: hMAO-A (Homo sapiens, UniProt P21397)
Sequence (P21397 whole entry): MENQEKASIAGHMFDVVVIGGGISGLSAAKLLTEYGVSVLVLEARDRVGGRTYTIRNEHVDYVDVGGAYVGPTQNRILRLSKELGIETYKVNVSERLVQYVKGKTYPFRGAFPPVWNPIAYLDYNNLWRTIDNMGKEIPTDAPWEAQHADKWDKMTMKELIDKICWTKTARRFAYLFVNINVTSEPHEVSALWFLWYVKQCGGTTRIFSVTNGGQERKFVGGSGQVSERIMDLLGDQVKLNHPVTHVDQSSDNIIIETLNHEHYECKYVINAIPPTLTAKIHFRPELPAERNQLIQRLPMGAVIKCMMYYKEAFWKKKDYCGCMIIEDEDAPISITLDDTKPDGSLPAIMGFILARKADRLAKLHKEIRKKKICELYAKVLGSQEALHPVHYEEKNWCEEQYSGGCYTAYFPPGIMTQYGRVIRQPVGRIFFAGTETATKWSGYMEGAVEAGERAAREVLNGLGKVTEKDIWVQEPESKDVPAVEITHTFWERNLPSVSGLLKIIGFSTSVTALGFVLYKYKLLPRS
experimental_details: hMAO-A inhibition, Amplex Red fluorometric assay;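 note: recombinant human MAO-A and MAO-B from baculovirus-infected insect cell microsomes, H2O2 formation detected fluorometrically via Amplex Red with horseradish peroxidase, background from enzyme-free wells subtracted, distilled water negative control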
condition_context: recombinant hMAO-A, p-tyramine substrate; mean SEM
pIC50: −log10 of the molar value.
Below: a set of entries, each annotated with reported pIC50.
measure: pIC50

>>> df
                                   compound                          tested_system  quantitative_readout
0  C=CCc1ccc(OC(=O)/C=C/c2ccc(O)c(O)c2)c(OC)c1  hMAO-A (Homo sapiens, UniProt P21397)                  5.15
1  O=C(/C=C/c1ccc(O)c(O)c1)Nc1ccc(Cl)cc1[N+](=O)[O-]  hMAO-A (Homo sapiens, UniProt P21397)                  5.07
2   O=C(/C=C/c1ccc(O)c(O)c1)Oc1ccc2ccccc2c1  hMAO-A (Homo sapiens, UniProt P21397)                  4.61
3     O=C(/C=C/c1ccc(O)c(O)c1)Nc1ccc(Br)cc1  hMAO-A (Homo sapiens, UniProt P21397)                  4.75

----------
tested_system: hMAO-A (Homo sapiens, UniProt P21397)
Construct: host or cells: insect cells (BTI-TN-5B14), recombinant baculovirus
experimental_details: hMAO-A inhibition, Amplex Red fluorometric assay
Type: biochemical
condition_context: IC50 (MAO-A)/IC50 (MAO-B)
y means recorded Selectivity index is 2 or above; n means it is below 2.

In [3]: df
Out[3]:
                                   compound  class_assignment
0   O=C(/C=C/c1ccc(O)c(O)c1)Nc1cccc2ccccc12                 y
1     O=C(/C=C/c1ccc(O)c(O)c1)Nc1ccc(Br)cc1                 n
2  O=C(/C=C/c1ccc(O)c(O)c1)Nc1ccc([N+](=O)[O-])cc1Cl                 n
3      O=C(/C=C/c1ccc(O)c(O)c1)Nc1cccc(F)c1                 n
